- Assay target: T1, CH505.TF mutant gp120 M8 (HIV-1)
- T1 construct: domain: gp120
- Test description: ELISA
// values below are reported LogAUC
API doc: respond with a numeric literal and nothing else, no unit.

Binder: CH491 (antibody, V domains shown, also called CH235.7; DH491) VH: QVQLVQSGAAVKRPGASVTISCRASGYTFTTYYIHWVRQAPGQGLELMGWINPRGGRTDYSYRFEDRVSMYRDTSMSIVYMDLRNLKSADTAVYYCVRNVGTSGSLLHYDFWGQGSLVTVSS VL: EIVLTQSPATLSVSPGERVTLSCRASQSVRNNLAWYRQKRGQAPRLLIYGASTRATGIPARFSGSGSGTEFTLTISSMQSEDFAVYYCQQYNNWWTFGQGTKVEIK
Experimental value: 0
--
Binder: CH557 (antibody, V domains shown, also called CH235.12; CH557_4A/293i) VH: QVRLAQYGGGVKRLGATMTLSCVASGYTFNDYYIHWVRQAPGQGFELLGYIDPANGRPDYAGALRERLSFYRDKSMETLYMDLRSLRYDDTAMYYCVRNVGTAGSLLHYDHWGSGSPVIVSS VL: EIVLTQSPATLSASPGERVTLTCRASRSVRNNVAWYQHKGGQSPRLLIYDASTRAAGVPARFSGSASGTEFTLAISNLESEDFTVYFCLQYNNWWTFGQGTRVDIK
Experimental value: 1.14
--
Binder: CH555 (antibody, V domains shown, also called CH235.10) VH: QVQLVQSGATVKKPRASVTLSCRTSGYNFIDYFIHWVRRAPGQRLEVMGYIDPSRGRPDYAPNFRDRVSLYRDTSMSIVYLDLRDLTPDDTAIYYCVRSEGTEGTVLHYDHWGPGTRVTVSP VL: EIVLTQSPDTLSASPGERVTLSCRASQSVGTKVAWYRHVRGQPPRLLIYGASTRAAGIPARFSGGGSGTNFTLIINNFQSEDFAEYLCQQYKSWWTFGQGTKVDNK
Experimental value: 0
--
Binder: CH235.13 (antibody, V domains shown) VH: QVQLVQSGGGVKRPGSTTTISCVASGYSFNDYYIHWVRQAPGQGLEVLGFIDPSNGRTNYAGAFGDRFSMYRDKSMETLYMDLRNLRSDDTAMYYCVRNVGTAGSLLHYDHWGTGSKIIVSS VL: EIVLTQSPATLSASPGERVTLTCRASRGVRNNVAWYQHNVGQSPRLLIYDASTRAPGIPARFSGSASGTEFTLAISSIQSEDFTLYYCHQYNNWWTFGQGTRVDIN
Experimental value: 0

Next binder, please.
The reported LogAUC of the binder CH235 (antibody, V domains shown, also called CH235_4A) VH: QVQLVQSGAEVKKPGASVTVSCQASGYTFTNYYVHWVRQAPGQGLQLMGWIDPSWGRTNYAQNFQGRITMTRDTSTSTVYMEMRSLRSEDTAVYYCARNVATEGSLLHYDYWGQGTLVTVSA VL: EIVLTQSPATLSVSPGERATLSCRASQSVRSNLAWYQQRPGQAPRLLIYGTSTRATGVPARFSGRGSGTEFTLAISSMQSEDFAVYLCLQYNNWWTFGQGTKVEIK was 0
